# Tested on: Recombinant Cat D (Homo sapiens (Human))
# Experiment summary: In vitro enzymatic Cathepsin D (Cat D) FRET assay
# Format: biochemical
# Study conditions: first procedure (FRET); read-out: Cat D IC50
pIC50: −log10 of the molar value.
Assay endpoint: pIC50

Could you tell me which pIC50 is on file for `COC[C@]12C[C@H]1[C@@](CF)(c1cc(NC(=O)c3ccc(Cl)cn3)cc(F)c1F)N=C(N)S2` ? < 3.40

====

# Tested on: Recombinant Cat D (Homo sapiens (Human), UniProt P07339)
# Sequence (P07339 65-412): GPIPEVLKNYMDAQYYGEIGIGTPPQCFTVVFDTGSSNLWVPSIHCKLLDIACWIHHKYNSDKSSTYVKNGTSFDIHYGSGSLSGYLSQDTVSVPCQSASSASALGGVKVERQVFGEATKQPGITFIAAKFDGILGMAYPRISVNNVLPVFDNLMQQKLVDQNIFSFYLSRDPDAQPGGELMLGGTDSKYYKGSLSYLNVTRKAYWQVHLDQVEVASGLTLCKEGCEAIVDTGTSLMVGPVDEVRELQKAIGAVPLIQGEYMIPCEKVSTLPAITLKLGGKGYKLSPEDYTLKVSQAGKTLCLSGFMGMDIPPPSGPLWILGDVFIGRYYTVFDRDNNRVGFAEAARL
# Experiment summary: In vitro enzymatic Cathepsin D (Cat D) FRET assay
# Format: biochemical
# Study conditions: read-out: IC50 IP (μM) CatD
Assay endpoint: log10 of IC50 (log10 of the value in µM)
# values: log10(IC50), units µM

>>> df
                                   compound  reported
0  COC[C@]12C[C@H]1[C@@](C)(c1cc(NC(=O)c3cnc(O[C@@H](C)C(F)(F)F)cn3)ccc1F)N=C(N)S2 (single isomer, unassigned)      3.29
1  Cc1cc(OCc2ncco2)cnc1C(=O)Nc1cc(F)c(F)c([C@@]2(C)N=C(N)S[C@@]3(CF)C[C@H]32)c1      2.68
2  C#CCOc1cnc(C(=O)Nc2ccc(F)c([C@@]3(C)N=C(N)S[C@@]4(COC)C[C@H]43)c2)c(C)c1      3.32
3  C#CCOc1cnc(C(=O)Nc2ccc(F)c([C@@]3(C)N=C(N)S[C@@]4(C(=O)N5CCOCC5)C[C@H]43)c2)cn1      1.86

Could you tell me which log10 of IC50 is on file for `COC[C@]12C[C@H]1[C@@](C)(c1cc(NC(=O)c3ncc(OCC(F)(F)F)nc3C)cc(F)c1F)N=C(N)S2` ? 3.01
